study target: full-length human PKCι (Homo sapiens, UniProt P41743)
Construct: Recombinant, full-length human PKCι expressed in Sf21 insect cells is also commercially available; purchased; host or cells: Sf21 insect cells
test description: PKCι IC50 IMAP fluorescence polarisation assay, full-length enzyme
Type: biochemical
experimental setup: full length PKCi at 15 μM ATP; read-out: IC50 in IMAP assay against full length PKCi (Activity)
pIC50: −log10 of the molar value.
reported property: pIC50

Guide cases for pIC50, answers given:
molecule_smiles=NCCNc1nc(-c2ccncc2)nc2sc3c(c12)CCN(C(=O)c1ccccc1)C3 result="4.40 to 5.00"
molecule_smiles=NCCNc1nc(-c2ccncc2)nc2sc3c(c12)CCN(C(=O)C1CCC1)C3 result="4.40 to 5.00"
molecule_smiles=N[C@H](CNc1nc(-c2ccncc2)nc2sc3c(c12)CCCC3)Cc1cccnc1 result="6.00 to 7.00"
molecule_smiles=NCCNc1nc(-c2ccncc2)nc2sc3c(c12)CCOC3 result="4.40 to 5.00"
molecule_smiles=NCCNc1nc(-c2ccncc2)nc2sc3c(c12)CCSC3 result="5.00 to 6.00"

Could you now consider this next molecule?
Any idea what pIC50 was measured for "N[C@@H](CNc1nc(-c2ccncc2)nc2sc3c(c12)CCC1(C3)OCCO1)Cc1ccccc1" ? 6.00 to 7.00

====

study target: full-length human PKCι (Homo sapiens, UniProt P41743)
Construct: Recombinant, full-length human PKCι expressed in Sf21 insect cells is also commercially available; purchased; host or cells: Sf21 insect cells
Sequence (P41743 1-596): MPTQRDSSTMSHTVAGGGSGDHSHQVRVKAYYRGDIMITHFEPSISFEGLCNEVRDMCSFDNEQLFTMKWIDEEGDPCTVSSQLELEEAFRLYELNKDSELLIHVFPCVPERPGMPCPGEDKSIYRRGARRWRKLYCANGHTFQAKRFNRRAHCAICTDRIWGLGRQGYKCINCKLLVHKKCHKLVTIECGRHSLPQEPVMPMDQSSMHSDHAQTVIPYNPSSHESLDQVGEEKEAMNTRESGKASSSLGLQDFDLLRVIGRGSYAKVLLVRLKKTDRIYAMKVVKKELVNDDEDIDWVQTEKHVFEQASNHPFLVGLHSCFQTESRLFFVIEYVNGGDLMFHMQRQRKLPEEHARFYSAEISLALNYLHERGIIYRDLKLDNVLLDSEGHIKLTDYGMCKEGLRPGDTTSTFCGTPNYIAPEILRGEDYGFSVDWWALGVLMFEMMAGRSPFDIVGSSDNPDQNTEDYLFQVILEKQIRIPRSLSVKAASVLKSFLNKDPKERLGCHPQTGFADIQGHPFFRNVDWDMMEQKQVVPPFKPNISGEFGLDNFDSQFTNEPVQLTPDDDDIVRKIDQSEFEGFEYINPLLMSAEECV
test description: PKCι IC50 IMAP fluorescence polarisation assay, full-length enzyme
Format: biochemical
experimental setup: full length PKCi at 15 μM ATP; read-out: IC50 in IMAP assay against full length PKCi
# key: entry, value: IC50

Below are worked cases with known answers.
molecule_smiles=Cc1sc2c(NC[C@@H](N)Cc3ccccc3)nc(-c3ccncc3)nc2c1C result="100 to 1000 nM"
molecule_smiles=Cc1c(-c2ccn[nH]2)sc2c(N[C@@H]3CCNC3)nc(-c3ccncc3)nc12 result="1000 to 10000 nM"

Here is the next item to consider.
What value of IC50 has been recorded for this entry: "O=C(Nc1cc(-c2nc(N[C@@H]3CCNC3)c3sccc3n2)ccn1)N1CCCCC1" 1000 to 10000 nM
